test system: PPARg:RXRa 270nM:90nM, anti-RXR (NR concentration 270 nM, RXRa partner concentration 90 nM); test: PBM binding z-score (relative to random genomic background probes); higher = stronger binding; sequences stand for … in GC…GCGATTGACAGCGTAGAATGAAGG
assay_readout: PBM binding z-score

- ATATGTAGGTTATGGGTCATTCAGGTTGGTTCGC: 8.74
- GCTTACGGGTCTAAGGTTATAGCATGAATAGAAT: 4.67
- ATCTCTAGGTAAAAATTCAGTGAATCCCGAGGAT: 1.34
- TGTCAAAGTTCAAAGGAAACGTAAGTATCCACAC: 7.15
- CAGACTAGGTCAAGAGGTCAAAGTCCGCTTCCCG: 7.74
- CTCGAAAGGTCGTGCTCACGTGAGTATACCAAAC: 3.42
- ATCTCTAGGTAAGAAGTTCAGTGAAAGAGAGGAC: 2.09
- CGAGCTAGGTCAAGGACAGTGAATCTCCGCACGC: 2.14
- CGTCAAAGATCAACTAAGGTAACGTAAAGCACGC: 0.957
- TCGAGTAGGTTAGTCGGGCCATTCAGCCAACATA: 0.911
- AATACAGGGTCACTAGGCGAGAGTAGGTACGAAT: 6.14
- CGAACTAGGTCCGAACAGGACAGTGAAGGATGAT: -0.558
- GCTAGCACGCCATTTGGGTCACTCAATGACGGGC: 0.379
- GCGACTGGGGCAAAGCCGGTTACCATAAGGTTGG: 0.491
- TCATATAGGTACATGCTAGGTGAAAGTCCGATCT: 2.04
- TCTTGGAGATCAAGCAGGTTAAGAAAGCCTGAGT: 1.39
- CCGACTGGGGGAAAGGTTACCATACTCAGTACGA: 9.24
- CAAACTAGGTCACGAAAGATCAAAGTCGAATGAC: 7.69
- ATCGAGAGGTCGAGGTGAGTATAGAGAAAGGGAA: 2.16
- GCAGACAGGTGAAACGCAGGCAACTCAGGGTGGC: -0.314
- GGAACGACGGCAAGTTGATAGCAGAGTTTGATGG: -0.859
- TCTCGGTGGACACGAAAGGTCAGAGCTCGACATC: 2.93
- TCTAGTTGGTCACGGAGGTCACACCCGACGGGTA: 4.03
- CTCGTAAGGTCGTGCTCAGGTGAGTATACCAAAC: 1.85
- CGTCCAAGGTCCTAGGAGGTCAGTGAAGACAGAT: 0.654
- CGAACGAGGGCATGAGTTGACAGCAAATGCCGAT: 1.54

###

system: THRa:RXRa (NR concentration 90 nM, RXRa partner concentration 90 nM); assay: PBM binding z-score (relative to random genomic background probes); higher = stronger binding; sequences stand for … in GC…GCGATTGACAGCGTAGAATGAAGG
# if value of PBM binding z-score reaches 3, tag t; if it stays below, tag f

* TCGAGTAGGCTAGGGGCATTCAGAATGGCGTCGA | f
* TCTCGGAGGACAGGAAAGGTCAGAGCTCGACATC | t
* CCTACTGGGCCATCAGGTCATTGCTATCAACGTT | t
* ATATGTAGGTTGTCGGGTCATTCAGTTTGCGCAT | t
* CCTAGTGGGCCATCAGGTCATTGATATCAACGTT | t
* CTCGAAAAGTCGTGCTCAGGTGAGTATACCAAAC | f
